EXPERIMENTAL TARGET: EP4 (Homo sapiens)
ASSAY SUMMARY: EP4 Antagonism by CRE-PLAP Reporter Assay (SE302 cells, PGE2-stimulated)
EXPERIMENTAL CONDITIONS: SE302 (HEK293) cells, 3 ng/mL PGE2, overnight; single or multiple assay average values
pIC50: −log10 of the molar value.
Everything with pIC50 lower than 8 is F; everything else, including exactly 8, is T.

Query :: Record `C[C@H](NC(=O)c1c(C(F)(F)F)nn2c1N(Cc1ccccc1C(F)(F)F)CC2)c1ccc(C(=O)O)cc1` ; criterion: pIC50 no lower than 8. Met?
Result :: F

Query :: Record `C[C@H](NC(=O)c1c(C(F)(F)F)nn2c1N(Cc1cccc(OC(F)(F)F)c1)CC2)c1ccc(C(=O)O)cc1` ; criterion: pIC50 no lower than 8. Met?
Result :: T

Query :: Record `C[C@H](NC(=O)c1c(C(F)(F)F)nn2c1N(Cc1ccccc1C(F)(F)F)CCC2)c1ccc(C(=O)O)cc1` ; criterion: pIC50 no lower than 8. Met?
Result :: F

Query :: Record `C[C@H](NC(=O)c1c(C(F)(F)F)nn2c1N(Cc1cccc(C(F)(F)F)c1)C[C@H]2CO)c1ccc(C(=O)O)cc1` ; criterion: pIC50 no lower than 8. Met?
Result :: T

Query :: Record `C[C@H](NC(=O)c1c(C(F)(F)F)nn2c1N(Cc1ccccc1Cl)CCC2)c1ccc(C(=O)O)cc1` ; criterion: pIC50 no lower than 8. Met?
Result :: F

Query :: Record `C[C@H](NC(=O)c1c(C(F)(F)F)nn2c1N(Cc1cc(Br)cc(C(F)(F)F)c1)CC2)c1ccc(C(=O)O)cc1` ; criterion: pIC50 no lower than 8. Met?
Result :: T

---

EXPERIMENTAL TARGET: EP4 (Homo sapiens, UniProt P35408)
Sequence (P35408 whole entry): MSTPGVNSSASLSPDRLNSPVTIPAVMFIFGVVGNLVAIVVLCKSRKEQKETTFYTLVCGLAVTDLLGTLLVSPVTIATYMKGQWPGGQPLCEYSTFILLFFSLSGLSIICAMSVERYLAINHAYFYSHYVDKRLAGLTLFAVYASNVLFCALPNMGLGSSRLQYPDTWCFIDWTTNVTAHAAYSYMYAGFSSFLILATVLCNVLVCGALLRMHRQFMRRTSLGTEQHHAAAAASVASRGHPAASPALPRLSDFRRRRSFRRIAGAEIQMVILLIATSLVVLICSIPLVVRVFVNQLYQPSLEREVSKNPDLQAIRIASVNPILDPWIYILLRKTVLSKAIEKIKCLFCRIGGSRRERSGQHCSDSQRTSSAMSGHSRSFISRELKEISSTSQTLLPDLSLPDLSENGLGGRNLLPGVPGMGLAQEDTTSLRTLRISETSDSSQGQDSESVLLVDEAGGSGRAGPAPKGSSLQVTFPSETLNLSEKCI
ASSAY SUMMARY: EP4 Antagonism by CRE-PLAP Reporter Assay (SE302 cells, PGE2-stimulated)
EXPERIMENTAL CONDITIONS: SE302 (HEK293) cells, 3 ng/mL PGE2, overnight; single or multiple assay average values
Answer each item with its documented pIC50.
Schema: pIC50 number; meaning minus log10 of the concentration expressed in molar units.

Query :: Give pIC50; test system EP4 (Homo sapiens, UniProt P35408); compound `C[C@H](NC(=O)c1c(C(F)(F)F)nn2c1N(c1ccc(C(F)(F)F)cc1)CC2)c1ccc(C(=O)O)cc1`
Result :: 7.31

Query :: Give pIC50; test system EP4 (Homo sapiens, UniProt P35408); compound `CCc1nn2c(c1C(=O)N[C@@H](C)c1ccc(C(=O)O)cc1)N(Cc1cccc(C(F)(F)F)c1)CC2`
Result :: 9.17

Query :: Give pIC50; test system EP4 (Homo sapiens, UniProt P35408); compound `COc1ccc(CN2CCn3nc(C(F)(F)F)c(C(=O)N[C@@H](C)c4ccc(C(=O)O)cc4)c32)cc1`
Result :: 8.10

Query :: Give pIC50; test system EP4 (Homo sapiens, UniProt P35408); compound `C[C@H](NC(=O)c1c(C(F)(F)F)nn2c1N(Cc1ccc(Cl)cc1)CCC2)c1ccc(C(=O)O)cc1`
Result :: 8.82

Query :: Give pIC50; test system EP4 (Homo sapiens, UniProt P35408); compound `C[C@H](NC(=O)c1c(C(F)(F)F)nn2c1N(Cc1cccc(Cl)c1)CC2)c1ccc(C(=O)O)cc1`
Result :: 8.65

Query :: Give pIC50; test system EP4 (Homo sapiens, UniProt P35408); compound `C[C@H](NC(=O)c1c(C(F)(F)F)nn2c1N(Cc1ccc(C(F)(F)F)cc1)CC2)c1ccc(CC(=O)O)cc1`
Result :: 8.15

Query :: Give pIC50; test system EP4 (Homo sapiens, UniProt P35408); compound `CSc1cc(CN2CCn3nc(C(F)(F)F)c(C(=O)N[C@@H](C)c4ccc(C(=O)O)cc4)c32)cc(C(F)(F)F)c1`
Result :: 9.24

---

EXPERIMENTAL TARGET: EP4 (Homo sapiens)
ASSAY SUMMARY: EP4 Antagonism by CRE-PLAP Reporter Assay (SE302 cells, PGE2-stimulated)
EXPERIMENTAL CONDITIONS: SE302 (HEK293) cells, 3 ng/mL PGE2, overnight; single or multiple assay average values
MEASUREMENT NAME: IC50 (nM)
Numbers only here, please. The scale is nM.

Query :: Give IC50; test system EP4 (Homo sapiens); molecule `C[C@H](NC(=O)c1c(C(F)(F)F)nn2c1N(Cc1ccc(C(F)(F)F)cc1)CCC2)c1ccc(C(=O)O)cc1`
Result :: 1.15

Query :: Give IC50; test system EP4 (Homo sapiens); molecule `C[C@H](NC(=O)c1c(C(F)(F)F)nn2c1N(Cc1cc(N(C)C)cc(C(F)(F)F)c1)CC2)c1ccc(C(=O)O)cc1`
Result :: 6.37

Query :: Give IC50; test system EP4 (Homo sapiens); molecule `C[C@H](NC(=O)c1c(C(F)(F)F)nn2c1N(Cc1cccc(C(F)(F)F)c1)C[C@H]2CF)c1ccc(C(=O)O)cc1`
Result :: 0.26

Query :: Give IC50; test system EP4 (Homo sapiens); molecule `C[C@H](NC(=O)c1c(C(F)(F)F)nn2c1N(Cc1cccc(OCCF)c1)CC2)c1ccc(C(=O)O)cc1`
Result :: 4.66

Query :: Give IC50; test system EP4 (Homo sapiens); molecule `C[C@H](NC(=O)c1c(C(F)(F)F)nn2c1N(Cc1ccc(Cl)cc1)CC2)c1ccc(C(=O)O)cc1`
Result :: 0.99

Query :: Give IC50; test system EP4 (Homo sapiens); molecule `C[C@H](NC(=O)c1c(C(F)(F)F)nn2c1N(Cc1cc(CCCF)cc(C(F)(F)F)c1)CC2)c1ccc(C(=O)O)cc1`
Result :: 11.6

Query :: Give IC50; test system EP4 (Homo sapiens); molecule `C[C@H](NC(=O)c1c(C(F)(F)F)nn2c1N(Cc1cccc(COCCF)c1)CC2)c1ccc(C(=O)O)cc1`
Result :: 28

Query :: Give IC50; test system EP4 (Homo sapiens); molecule `C[C@H](NC(=O)c1c(C(F)(F)F)nn2c1N(Cc1ccc(Cl)c(C(F)(F)F)c1)CC2)c1ccc(C(=O)O)cc1`
Result :: 1.3

Query :: Give IC50; test system EP4 (Homo sapiens); molecule `C[C@H](NC(=O)c1c(C(F)(F)F)nn2c1N(Cc1cccc(I)c1)CC2)c1ccc(C(=O)O)cc1`
Result :: 0.7

Query :: Give IC50; test system EP4 (Homo sapiens); molecule `C[C@H](NC(=O)c1c(C(F)(F)F)nn2c1N(Cc1cc(Cl)cc(C(F)(F)F)c1)CC2)c1ccc(C(=O)O)cc1`
Result :: 0.14

Query :: Give IC50; test system EP4 (Homo sapiens); molecule `C[C@H](NC(=O)c1c(C(F)(F)F)nn2c1N(Cc1ccc(CCCF)c(C(F)(F)F)c1)CC2)c1ccc(C(=O)O)cc1`
Result :: 17.7

Query :: Give IC50; test system EP4 (Homo sapiens); molecule `C[C@H](NC(=O)c1c(C(F)(F)F)nn2c1N(Cc1cccc(C(F)(F)F)c1)CC2)c1ccc(C(=O)NS(=O)(=O)C2CC2)cc1`
Result :: 73

Query :: Give IC50; test system EP4 (Homo sapiens); molecule `C[C@H](NC(=O)c1c(C(F)(F)F)nn2c1N(Cc1cccc(C(F)(F)F)c1)C[C@H]2COCc1ccccc1)c1ccc(C(=O)O)cc1`
Result :: 58.1

Query :: Give IC50; test system EP4 (Homo sapiens); molecule `C[C@H](NC(=O)c1c(C(F)(F)F)nn2c1N(Cc1ccccc1Cl)CC2)c1ccc(C(=O)O)cc1`
Result :: 4.17

Query :: Give IC50; test system EP4 (Homo sapiens); molecule `C[C@H](NC(=O)c1c(C(F)(F)F)nn2c1N(Cc1ccc(N)cc1)CC2)c1ccc(C(=O)O)cc1`
Result :: 1.49

Query :: Give IC50; test system EP4 (Homo sapiens); molecule `CCc1ccc(CN2CCn3nc(C(F)(F)F)c(C(=O)N[C@@H](C)c4ccc(C(=O)O)cc4)c32)cc1`
Result :: 2.23

Query :: Give IC50; test system EP4 (Homo sapiens); molecule `C[C@H](NC(=O)c1c(C(F)(F)F)nn2c1N(Cc1cccc(C(F)(F)F)c1)CC2)c1ccc(C(=O)NC2(C#N)CC2)cc1`
Result :: 32.9

Query :: Give IC50; test system EP4 (Homo sapiens); molecule `C[C@H](NC(=O)c1c(C(F)(F)F)nn2c1N(Cc1ccc(C(F)(F)F)cc1)CC2)c1ccc(-c2nn[nH]n2)cc1`
Result :: 0.45

Query :: Give IC50; test system EP4 (Homo sapiens); molecule `Cc1cn(Cc2cccc(C(F)(F)F)c2)c2c(C(=O)N[C@@H](C)c3ccc(C(=O)O)cc3)c(C(F)(F)F)nn12`
Result :: 1.1

Query :: Give IC50; test system EP4 (Homo sapiens); molecule `C[C@H](NC(=O)c1c(C(F)(F)F)nn2c1N(c1ccc(Cl)cc1)CC2)c1ccc(C(=O)O)cc1`
Result :: 91.3

Query :: Give IC50; test system EP4 (Homo sapiens); molecule `C[C@H](NC(=O)c1c(C(F)(F)F)nn2c1N(Cc1cccc(F)c1)CC2)c1ccc(C(=O)O)cc1`
Result :: 1.65

Query :: Give IC50; test system EP4 (Homo sapiens); molecule `C[C@H](NC(=O)c1c(C(F)(F)F)nn2c1N(Cc1cccc(C(F)(F)F)c1)CCC2)c1ccc(C(=O)O)cc1`
Result :: 6.83

Query :: Give IC50; test system EP4 (Homo sapiens); molecule `C[C@H](NC(=O)c1c(C(F)(F)F)nn2c1N(Cc1cccc(CCCF)c1)CC2)c1ccc(C(=O)O)cc1`
Result :: 0.866

Query :: Give IC50; test system EP4 (Homo sapiens); molecule `C[C@H](NC(=O)c1c(C(F)(F)F)nn2c1N(Cc1cccc(C(F)(F)F)c1)CC2)c1ccc(C(=O)O)cc1`
Result :: 0.34

Query :: Give IC50; test system EP4 (Homo sapiens); molecule `C[C@H](NC(=O)c1c(C(F)(F)F)nn2c1N(Cc1cccc(C(F)(F)F)c1)CC2)c1ccc(C(=O)NS(=O)(=O)c2ccc(N)cc2)cc1`
Result :: 51.2

Query :: Give IC50; test system EP4 (Homo sapiens); molecule `C[C@H](NC(=O)c1c(C(F)(F)F)nn2c1N(Cc1ccccc1)CC2)c1ccc(C(=O)O)cc1`
Result :: 0.84

Query :: Give IC50; test system EP4 (Homo sapiens); molecule `C[C@H](NC(=O)c1c(C(F)(F)F)nn2c1N(Cc1cccc(Cl)c1)CCC2)c1ccc(C(=O)O)cc1`
Result :: 13.6
